B1: Ankyrin-1, residues 1405 to 1484; numbered along this chain, P16157 (parent)
chain: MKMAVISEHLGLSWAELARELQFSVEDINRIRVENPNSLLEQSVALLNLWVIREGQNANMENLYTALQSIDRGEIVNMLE

Variants of: B1
Experiment: abundance fitness (aPCA) (normalised: wild type 0, dead -1); higher = more abundant; growth selection in yeast, the domain comes from the species named
Details: Homo sapiens
Note to self: class = bucket of abundance fitness, per low bracket: < -0.2; middle bracket: ≥ -0.2 and < -0.03; high bracket: ≥ -0.03

mutation id: V44A
class name: high bracket

mutation id: N35V
class name: middle bracket

mutation id: E34G
class name: middle bracket

mutation id: L49A
class name: middle bracket

mutation id: T65A
class name: high bracket

mutation id: M78N
class name: high bracket

mutation id: Q68R
class name: middle bracket

mutation id: M60N
class name: low bracket

mutation id: W50K
class name: low bracket

These measurements were taken from the Human Domainome abundance scans (Beltran et al. 2025).
